Entry source: patent US8410139B2

Reported solubility thermodynamic by item:
# assay-explanation: Thermodynamic equilibrium aqueous solubility assay
# Format: physicochemical
# condition-context: aqueous solvent, pH 6.5, aqueous buffer, thermodynamic from solid; read-out: Aq. sol., mg/mL (pH)
Give the number; mg/mL is assumed, so skip it.

molecule | solubility thermodynamic / mg/mL
CCC(=O)OC(C)(C)CNC(=O)N[C@@H](C(=O)N1CC[C@](O)(c2ccc(Cl)cc2)C(C)(C)C1)C(C)C [Example 5] | 0.04

Now look at this one.
Asked: Recorded solubility thermodynamic for CC(C)[C@@H](NC(=O)NCC(C)(C)OC(=O)Cc1ccc(OP(=O)(O)O)cc1)C(=O)N1CC[C@](O)(c2ccc(Cl)cc2)C(C)(C)C1 [Example 24] , please?
Given back: 1.1

---

# assay-explanation: Solution stability assay (pH 1.0 and pH 7.4, 37° C.)
# Assay type: physicochemical
# condition-context: pH 1; conversion of the prodrug to compound 1; 37° C.; read-out: Aq. Stability half-life (pH 1/7.4) Hrs (converted)
endpoint: log10 of half-life (log10 of the value in h)
log10 half-life, h

Sample answers from the record:
compound | endpoint | assay-value
CC(COC(=O)OC(C)(C)CNC(=O)N[C@@H](C(=O)N1CC[C@](O)(c2ccc(Cl)cc2)C(C)(C)C1)C(C)C)OP(=O)(O)O (some centres unmarked) | log10 of half-life | 1.99
CC(C)[C@@H](NC(=O)NCC(C)(C)OC(=O)OCS(=O)(=O)O)C(=O)N1CC[C@](O)(c2ccc(Cl)cc2)C(C)(C)C1 | log10 of half-life | 1.40
CC(C)[C@@H](NC(=O)NCC(C)(C)O)C(=O)N1CC[C@](OCOC(=O)[C@@H](C)O)(c2ccc(Cl)cc2)C(C)(C)C1 | log10 of half-life | 1.22
CC(C)[C@@H](NC(=O)NCC(C)(C)OC(=O)CN)C(=O)N1CC[C@](O)(c2ccc(Cl)cc2)C(C)(C)C1 | log10 of half-life | 2.20
CC(=O)OC(C)(C)CNC(=O)N[C@@H](C(=O)N1CC[C@](O)(c2ccc(Cl)cc2)C(C)(C)C1)C(C)C | log10 of half-life | 1.46

Asked: Name the recorded log10 of half-life for "CC(C)[C@@H](NC(=O)NCC(C)(C)OC(=O)OCCN1CCOCC1)C(=O)N1CC[C@](O)(c2ccc(Cl)cc2)C(C)(C)C1" .
Given back: 1.93

Asked: Requested field: log10 of half-life. Item: "CC(C)[C@@H](NC(=O)NCC(C)(C)OC(=O)CCS(=O)(=O)O)C(=O)N1CC[C@](O)(c2ccc(Cl)cc2)C(C)(C)C1"
Given back: 1.64

Asked: Field request: log10 of half-life | item: "CC(C)[C@@H](N)C(=O)OCOC(=O)OC(C)(C)CNC(=O)N[C@@H](C(=O)N1CC[C@](O)(c2ccc(Cl)cc2)C(C)(C)C1)C(C)C"
Given back: 1.91

Asked: If you can, please state the reported log10 of half-life value of CC(O)C(=O)OC(C)(C)CNC(=O)N[C@@H](C(=O)N1CC[C@](O)(c2ccc(Cl)cc2)C(C)(C)C1)C(C)C (some centres unmarked) .
Given back: 1.52

Asked: Find the recorded log10 of half-life belonging to "CC(C)[C@@H](NC(=O)NCC(C)(C)O)C(=O)N1CC[C@](OCOP(=O)(O)O)(c2ccc(Cl)cc2)C(C)(C)C1" and report it.
Given back: 0.15

Asked: Field request: log10 of half-life | item: "CC(C)[C@@H](NC(=O)NCC(C)(C)OC(=O)OCOC(=O)CS(=O)(=O)O)C(=O)N1CC[C@](O)(c2ccc(Cl)cc2)C(C)(C)C1"
Given back: 1.67
